Reference for the values: the supplement of paper PMC6757056

Catalogue of variants with associated normalized RNA/DNA level with ligand (log10)
B1: library; a variant is named by its letters at N, in order (parent)
chain: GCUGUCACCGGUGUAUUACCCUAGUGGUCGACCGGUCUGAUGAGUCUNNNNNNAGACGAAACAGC

Variants of: B1
testDetails: normalized RNA/DNA level with ligand (relative to sTRSVctl = 100) (log10 (% of sTRSVctl)); ligand: hypoxanthine (xanthine aptamer); higher = less ribozyme self-cleavage, higher mRNA level
conditionInfo: ligand concentration (+) RNA-Seq: 5 mM, HEK293T, reporter: mCherry (pCS4076), ligand present: yes
Write no unit; give the number alone.

For orientation, consider the following solved cases.
-- ask Tell me its normalized RNA/DNA level with ligand (log10) given GCUGUCACCGGUGUAUUACCCUAGUGGUCGACCGGUCUGAUGAGUCUUACAUCAGACGAAACAGC [UACAUC] as the entry.
-- reply 1.98

-- ask Please give the documented normalized RNA/DNA level with ligand (log10) of GCUGUCACCGGUGUAUUACCCUAGUGGUCGACCGGUCUGAUGAGUCUUACGUUAGACGAAACAGC [UACGUU]
-- reply 1.96

-- ask Retrieve normalized RNA/DNA level with ligand (log10) measured for GCUGUCACCGGUGUAUUACCCUAGUGGUCGACCGGUCUGAUGAGUCUUUUACAAGACGAAACAGC [UUUACA] and print it.
-- reply 1.97

-- ask Provide only the value of recorded normalized RNA/DNA level with ligand (log10) for GCUGUCACCGGUGUAUUACCCUAGUGGUCGACCGGUCUGAUGAGUCUGUUGGCAGACGAAACAGC [GUUGGC]
-- reply 1.9

-- ask Check the records and state normalized RNA/DNA level with ligand (log10) for GCUGUCACCGGUGUAUUACCCUAGUGGUCGACCGGUCUGAUGAGUCUGGCACAAGACGAAACAGC [GGCACA]
-- reply 1.88

-- ask Could you please provide reported normalized RNA/DNA level with ligand (log10) for GCUGUCACCGGUGUAUUACCCUAGUGGUCGACCGGUCUGAUGAGUCUUGUACCAGACGAAACAGC [UGUACC] ? Thanks!
-- reply 2

New cases:
-- ask Identify the reported normalized RNA/DNA level with ligand (log10) for the following entry. GCUGUCACCGGUGUAUUACCCUAGUGGUCGACCGGUCUGAUGAGUCUAUAAUGAGACGAAACAGC [AUAAUG]
-- reply 1.84

-- ask Hello, please tell me recorded normalized RNA/DNA level with ligand (log10) for this one: GCUGUCACCGGUGUAUUACCCUAGUGGUCGACCGGUCUGAUGAGUCUUAUCCGAGACGAAACAGC [UAUCCG]
-- reply 1.93

-- ask Recall and state the measured normalized RNA/DNA level with ligand (log10) for GCUGUCACCGGUGUAUUACCCUAGUGGUCGACCGGUCUGAUGAGUCUUAUUGGAGACGAAACAGC [UAUUGG] .
-- reply 1.87

-- ask Output normalized RNA/DNA level with ligand (log10) of GCUGUCACCGGUGUAUUACCCUAGUGGUCGACCGGUCUGAUGAGUCUUUGGAAAGACGAAACAGC [UUGGAA]
-- reply 1.94

-- ask Specify reported normalized RNA/DNA level with ligand (log10) for the variant shown: GCUGUCACCGGUGUAUUACCCUAGUGGUCGACCGGUCUGAUGAGUCUGAAUGAAGACGAAACAGC [GAAUGA]
-- reply 1.92

-- ask Fill in reported normalized RNA/DNA level with ligand (log10) for this entry: GCUGUCACCGGUGUAUUACCCUAGUGGUCGACCGGUCUGAUGAGUCUAAGACGAGACGAAACAGC [AAGACG]
-- reply 1.67

-- ask Could you please provide reported normalized RNA/DNA level with ligand (log10) for GCUGUCACCGGUGUAUUACCCUAGUGGUCGACCGGUCUGAUGAGUCUGGCGCUAGACGAAACAGC [GGCGCU] ? Thanks!
-- reply 1.97

-- ask Report normalized RNA/DNA level with ligand (log10), nothing else, for this variant: GCUGUCACCGGUGUAUUACCCUAGUGGUCGACCGGUCUGAUGAGUCUCAUUACAGACGAAACAGC [CAUUAC]
-- reply 1.9

-- ask Provide one value: measured normalized RNA/DNA level with ligand (log10) of GCUGUCACCGGUGUAUUACCCUAGUGGUCGACCGGUCUGAUGAGUCUUCAAGUAGACGAAACAGC [UCAAGU]
-- reply 1.91

-- ask Please supply the value of reported normalized RNA/DNA level with ligand (log10) for the item GCUGUCACCGGUGUAUUACCCUAGUGGUCGACCGGUCUGAUGAGUCUUCAUCUAGACGAAACAGC [UCAUCU]
-- reply 2.03
